# experimental.target: UniProt:Q9NWZ3
# Sequence (Q9NWZ3 whole entry, species assumed): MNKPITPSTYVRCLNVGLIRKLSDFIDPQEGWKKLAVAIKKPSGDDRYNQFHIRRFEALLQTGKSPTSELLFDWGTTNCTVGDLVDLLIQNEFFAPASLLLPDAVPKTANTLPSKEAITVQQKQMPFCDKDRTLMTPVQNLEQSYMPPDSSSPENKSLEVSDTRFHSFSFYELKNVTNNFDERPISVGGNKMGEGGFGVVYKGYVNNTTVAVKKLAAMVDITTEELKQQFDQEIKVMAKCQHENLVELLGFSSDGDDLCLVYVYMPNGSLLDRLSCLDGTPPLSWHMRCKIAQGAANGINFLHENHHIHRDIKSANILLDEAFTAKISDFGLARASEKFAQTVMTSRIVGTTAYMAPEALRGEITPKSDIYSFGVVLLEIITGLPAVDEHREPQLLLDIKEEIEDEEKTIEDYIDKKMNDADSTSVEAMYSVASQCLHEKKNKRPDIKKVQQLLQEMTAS
# protocol.description: Hibit fluorescence detection of proteolysis (IRAK4-HiBiT in HEK293T cells)
# Format: cell-based
# Set-up: host or cells: HEK293T (ATCC)
# condition.description: IRAK4-HiBiT, HEK293T cells, 24 h; read-out: DC50

molecule: CN1CCN(c2ccn3ncc(-c4cn(-c5cn([C@H]6CC[C@H](CN7CCC8(CCN(c9cccc%10c9n(C)c(=O)n%10C9CCC(=O)NC9=O)CC8)C7)CC6)nc5C(F)F)nn4)c3n2)CC1 (some centres unmarked) [Compound 232]
DC50: 0.5 to 1 nM
--
molecule: Cn1c(=O)n(C2CCC(=O)NC2=O)c2cccc(N3CCC(CN4CCC(n5cc(-n6cc(-c7ccc8cc(C(N)=O)cnn78)nn6)c(C(F)F)n5)CC4)CC3)c21 (centres unmarked) [Example 74]
DC50: < 0.5 nM
--
molecule: C[C@H]1COCCN1c1ccn2ncc(-c3cn(-c4cn([C@H]5CC[C@H](CN6CCC7(CC6)CCN(c6cccc8c6n(C)c(=O)n8C6CCC(=O)NC6=O)C7)CC5)nc4C(F)F)nn3)c2n1 (some centres unmarked) [Compound 204]
DC50: < 0.5 nM
--
molecule: Cn1c(=O)n(C2CCC(=O)NC2=O)c2cccc(NC(=O)N3CCC4(CCN(C[C@H]5CC[C@H](n6cc(-n7cc(-c8cnn9ccc(N%10CCOCC%10)nc89)nn7)c(C(F)F)n6)CC5)C4)CC3)c21 (some centres unmarked) [Example 18]
DC50: > 5 nM
--
molecule: NC(=O)c1cnn2c(-c3cn(-c4cn(C5CCN(CC6CCN(c7ccc8c(c7)C(=O)N(C7CCC(=O)NC7=O)C8=O)CC6)CC5)nc4C(F)F)nn3)ccc2c1 (centres unmarked) [Example 94]
DC50: < 0.5 nM

Origin of measurements: patent EP4759807A1
